This collection of values is drawn from patent US20250197467A1.

Measured HEK-blue EC50 values are reported for all entries that follow.
# experimental system: T1, IL-18 receptor (IL-18Rαβ) on cells (UniProt Q13478 19-541; O95256 20-599, limits assumed)
# T1 sequence (looked up) 1: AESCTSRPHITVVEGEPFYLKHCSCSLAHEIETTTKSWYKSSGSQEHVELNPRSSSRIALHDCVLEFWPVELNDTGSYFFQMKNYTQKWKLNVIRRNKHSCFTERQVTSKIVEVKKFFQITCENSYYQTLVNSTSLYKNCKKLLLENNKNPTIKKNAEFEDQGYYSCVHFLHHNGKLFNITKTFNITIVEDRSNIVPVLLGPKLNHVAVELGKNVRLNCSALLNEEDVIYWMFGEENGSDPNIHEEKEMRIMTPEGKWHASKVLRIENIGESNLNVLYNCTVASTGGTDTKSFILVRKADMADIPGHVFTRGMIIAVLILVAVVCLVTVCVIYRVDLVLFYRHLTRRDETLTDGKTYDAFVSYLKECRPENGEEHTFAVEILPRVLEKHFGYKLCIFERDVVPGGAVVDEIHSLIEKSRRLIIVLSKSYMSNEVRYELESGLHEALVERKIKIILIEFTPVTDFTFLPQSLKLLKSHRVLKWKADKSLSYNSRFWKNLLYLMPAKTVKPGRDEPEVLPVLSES
# T1 sequence (looked up) 2: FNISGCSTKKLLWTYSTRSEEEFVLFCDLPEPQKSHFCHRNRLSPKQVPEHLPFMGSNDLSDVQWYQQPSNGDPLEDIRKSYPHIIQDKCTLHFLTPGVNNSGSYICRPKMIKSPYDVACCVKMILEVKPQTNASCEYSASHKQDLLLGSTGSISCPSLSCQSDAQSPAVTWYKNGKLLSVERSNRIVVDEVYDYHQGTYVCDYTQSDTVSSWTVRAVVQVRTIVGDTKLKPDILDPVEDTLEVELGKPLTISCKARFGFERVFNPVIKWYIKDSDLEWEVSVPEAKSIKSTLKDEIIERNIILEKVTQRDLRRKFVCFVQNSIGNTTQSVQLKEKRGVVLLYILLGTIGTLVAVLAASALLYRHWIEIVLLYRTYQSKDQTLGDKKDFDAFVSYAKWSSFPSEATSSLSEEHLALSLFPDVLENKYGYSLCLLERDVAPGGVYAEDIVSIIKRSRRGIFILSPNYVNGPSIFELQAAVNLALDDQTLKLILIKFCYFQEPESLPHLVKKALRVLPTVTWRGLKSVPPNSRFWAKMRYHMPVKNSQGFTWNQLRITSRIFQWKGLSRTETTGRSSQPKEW
# assay name: cell-based or functional assay
Return type: number; implicit unit nM.

# count of solved cases: 8
binder	HEK-blue EC50 [nM]
C136 (ligand) YFGKLKSKLSIIRNLNDQVLFIDQGNRPLFEDMTDSDARDNAPRTIFIISMYADSQPRGMAVAISVKCEKISTLSAENKIISFKEMNPPDNIKDTKSDIIFFQRSVPGHDNKMQFESSSYEGYFLAAEKERDLFKLILKKEDELGDRSIMFTVQNEGGSGGSNIVPVLLGPKLNHVAVELGKNVRLNCSALLNEEDVIYWMFGEENGSDPNIHEEKEMRIMTPEGKWHASKVLRIENIGESNLNVLYNCTVASTGGTDTKSFILVRKADHHHHHH	0.884
C172 (ligand) YFGKLKSKLSIIRNLNDQVLFIDQGNRPLFEDMTDSDARDNAPRTIFIISMYADSQPRGMAVAISVKCEKISTLSAENKIISFKEMNPPDNIKDTKSDIIFFQRSVPGHDNKMQFESSSYEGYFLAAEKERDLFKLILKKEDELGDRSIMFTVQNESGGPGPAGMKGLPGSNIVPVLLGPKLNHVAVELGKNVRLNCSALLNEEDVIYWMFGEENGSDPNIHEEKEMRIMTPEGKWHASKVLRIENIGESNLNVLYNCTVASTGGTDTKSFILVRKADHHHHHH	1.09
C189 (ligand) YFGKLKSKLSIIRNLNDQVLFIDQGNRPLFEDMTDSDARDNAPRTIFIISMYADSQPRGMAVAISVKCEKISTLSAENKIISFKEMNPPDNIKDTKSDIIFFQRSVPGHDNKMQFESSSYEGYFLAAEKERDLFKLILKKEDELGDRSIMFTVQNESGGPGPAGMKGLPGSNIVPVLLGPKLNHVAVELGKNVRLDCSALLNEEDVIYWMFGEEDGSDPNIHEEKEMRIMTPEGKWHASKVLRIENIGESNLNVLYDCTVASTGGTDTKSFILVRKADHHHHHH	0.43
C185 (ligand) MAAEPVEDNCINFVAMKFIDNTLYFIAEDDENLESDPLGYFGKLKSKLSIIRNLNDQVLFIDQGNRPLFEDMTDSDARDNAPRTIFIISMYADSQPRGMAVAISVKCEKISTLSAENKIISFKEMNPPDNIKDTKSDIIFFQRSVPGHDNKMQFESSSYEGYFLAAEKERDLFKLILKKEDELGDRSIMFTVQNED	2560
C187 (ligand) MAAEPVEDNCINFVAMKFIDNTLYFIAEDDENLESDPLGLAGYFGKLKSKLSIIRNLNDQVLFIDQGNRPLFEDMTDSDARDNAPRTIFIISMYADSQPRGMAVAISVKCEKISTLSAENKIISFKEMNPPDNIKDTKSDIIFFQRSVPGHDNKMQFESSSYEGYFLAAEKERDLFKLILKKEDELGDRSIMFTVQNED	1240
C086 (SEQ ID NO: 30) (ligand) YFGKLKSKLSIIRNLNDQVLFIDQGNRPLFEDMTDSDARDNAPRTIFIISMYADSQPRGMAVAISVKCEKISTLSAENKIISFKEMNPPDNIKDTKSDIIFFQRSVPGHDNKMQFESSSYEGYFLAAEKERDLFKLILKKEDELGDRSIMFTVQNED	0.04
C190 + MMP9 (ligand) MAAEPVEDNCINFVAMKFIDNTLYFIAEDDENLESDYFGKLKSKLSIIRNLNDQVLFIDQGNRPLFEDMTDSDARDNAPRTIFIISMYADSQPRGMAVAISVKCEKISTLSAENKIISFKEMNPPDNIKDTKSDIIFFQRSVPGHDNKMQFESSSYEGYFLAAEKERDLFKLILKKEDELGDRSIMFTVQNED	198
C191 (ligand) YFGKLKSKLSIIRNLNDQVLFIDQGNRPLFEDMTDSDARDNAPRTIFIISMYADSQPRGMAVAISVKCEKISTLSAENKIISFKEMNPPDNIKDTKSDIIFFQRSVPGHDNKMQFESSSYEGYFLAAEKERDLFKLILKKEDELGDRSIMFTVQNESGGPLGLAGGSNIVPVLLGPKLNHVAVELGKNVRLNCSALLNEEDVIYWMFGEENGSDPNIHEEKEMRIMTPEGKWHASKVLRIENIGESNLNVLYNCTVASTGGTDTKSFILVRKADHHHHHH	2.02

Entry C137 (ligand) YFGKLKSKLSIIRNLNDQVLFIDQGNRPLFEDMTDSDARDNAPRTIFIISMYADSQPRGMAVAISVKCEKISTLSAENKIISFKEMNPPDNIKDTKSDIIFFQRSVPGHDNKMQFESSSYEGYFLAAEKERDLFKLILKKEDELGDRSIMFTVQNEGGGGSGGGGSGGGGSNIVPVLLGPKLNHVAVELGKNVRLNCSALLNEEDVIYWMFGEENGSDPNIHEEKEMRIMTPEGKWHASKVLRIENIGESNLNVLYNCTVASTGGTDTKSFILVRKADHHHHHH — recorded HEK-blue EC50 = 2.08

Recorded result, C190 (ligand) MAAEPVEDNCINFVAMKFIDNTLYFIAEDDENLESDYFGKLKSKLSIIRNLNDQVLFIDQGNRPLFEDMTDSDARDNAPRTIFIISMYADSQPRGMAVAISVKCEKISTLSAENKIISFKEMNPPDNIKDTKSDIIFFQRSVPGHDNKMQFESSSYEGYFLAAEKERDLFKLILKKEDELGDRSIMFTVQNED , HEK-blue EC50: 404

Looking up C127 (ligand) MAAEPVEDNCINFVAMKFIDNTLYFIAEDDENLESDSGGPGPAGMKGLPGSYFGKLKSKLSIIRNLNDQVLFIDQGNRPLFEDMTDSDARDNAPRTIFIISMYADSQPRGMAVAISVKCEKISTLSAENKIISFKEMNPPDNIKDTKSDIIFFQRSVPGHDNKMQFESSSYEGYFLAAEKERDLFKLILKKEDELGDRSIMFTVQNED , I see its HEK-blue EC50 listed as 295
